Quick reference for inhibition among some compounds
assay: inhibitors of TNFa-induced NFkB p65 translocation, primary screen, imaging, HUVEC, MLSMR starter and 10KST1 sets (AID 438); settings: HUVEC TNFa-induced p65 nuclear translocation; at 2 µM, hits give high values, 0% TNFa-plus-vehicle, 100% no-TNFa wells;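 note: compound added about 3h40 before a 20 min TNFalpha stimulation; signal is the nuclear over cytoplasmic p65 intensity ratio per well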
Write the number in % without appending the unit.

compound	quantity_unit	inhibition
CC(C)CC(=O)CN1C(=O)C2(OCCO2)c2ccccc21	%	-2.4
Cc1cccn2cc(-c3ccccc3)nc12	%	1.7
O=C(CN1C(=O)c2ccccc2C1=O)NCC1COc2ccccc2O1 (stereo unspecified)	%	-0.8
CC(C)(C)C(=O)N=C1SC2CS(=O)(=O)CC2N1c1ccc2c(c1)OCO2 (stereo unspecified)	%	5.8
O=C(COc1ccc(Cl)cc1)Nc1ncccn1	%	-3.8

Challenge: Quick one: inhibition of N#CC1=C(N)n2c(s/c(=C\c3ccco3)c2=O)=C(C#N)C1c1ccco1 (stereo unspecified) ?
Response given: -2.2

Challenge: What value of measured inhibition is listed for O=C(CCn1c(=O)sc2ccccc21)NC1=NCCS1 ?
Response given: -25.8

Challenge: Please look up its inhibition: COc1ccc(-c2noc(CCC(=O)NCCCN3CCC(Cc4ccccc4)CC3)n2)cc1
Response given: 7.8

Challenge: Consider the compound CCC(=O)NC1(C(F)(F)F)C(=O)NC(C)=C1C#N (stereo unspecified) and give its measured inhibition.
Response given: 3.6

Challenge: Please give the measured inhibition for this compound: CC(C(=O)NCc1cccnc1)N1C(=O)c2ccccc2C1=O (stereo unspecified)
Response given: 5.5
